Exercise: state measured koff for each of the binders provided.
Biological target: T1, Macaca fascicularis IL2Rγ extracellular domain expressed with a C-terminal myc-myc-hexahistidine tag (Macaca fascicularis)
T1 construct: also called mfIL-2Rg-MMH; mfIL-2RG-MMH
T1 chain: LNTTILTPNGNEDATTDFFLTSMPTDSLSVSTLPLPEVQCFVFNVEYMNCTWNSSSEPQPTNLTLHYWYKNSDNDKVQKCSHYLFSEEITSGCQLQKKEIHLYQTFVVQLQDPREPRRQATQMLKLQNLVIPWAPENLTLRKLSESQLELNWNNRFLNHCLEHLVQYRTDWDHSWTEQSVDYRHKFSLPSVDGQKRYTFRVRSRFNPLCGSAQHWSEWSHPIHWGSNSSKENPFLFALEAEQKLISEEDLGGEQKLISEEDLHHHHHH
Assay: SPR Biacore 4000, mAb captured by anti-hFc, HBS-ET, 25C
Answer with the value and then the unit.

Quickly give me recorded koff for H4H12886P (antibody, human IgG4 S228P, kappa, V domains shown, anti-IL2Rγ monoclonal antibody expressed with human IgG4 Fc) VH: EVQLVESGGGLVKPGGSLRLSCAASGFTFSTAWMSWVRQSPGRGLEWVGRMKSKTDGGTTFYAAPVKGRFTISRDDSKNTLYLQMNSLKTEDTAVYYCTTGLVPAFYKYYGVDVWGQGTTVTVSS VL: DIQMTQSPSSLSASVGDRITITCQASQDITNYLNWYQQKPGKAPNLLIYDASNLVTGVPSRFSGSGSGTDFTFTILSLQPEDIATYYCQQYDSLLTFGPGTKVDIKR 0.000266 s⁻¹

State its koff: H4H13541P (antibody, human IgG4 S228P, kappa, V domains shown, anti-IL2Rγ monoclonal antibody expressed with human IgG4 Fc) VH: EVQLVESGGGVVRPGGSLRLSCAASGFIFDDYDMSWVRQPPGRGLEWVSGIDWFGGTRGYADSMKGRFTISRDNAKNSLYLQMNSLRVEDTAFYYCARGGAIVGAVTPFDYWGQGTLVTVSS VL: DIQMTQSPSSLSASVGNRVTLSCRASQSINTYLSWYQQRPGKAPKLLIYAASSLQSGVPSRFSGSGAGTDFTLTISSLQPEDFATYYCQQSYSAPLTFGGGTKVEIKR 0.000315 s⁻¹

Read off the recorded koff for H4H12874P (antibody, human IgG4 S228P, kappa, V domains shown, anti-IL2Rγ monoclonal antibody expressed with human IgG4 Fc) VH: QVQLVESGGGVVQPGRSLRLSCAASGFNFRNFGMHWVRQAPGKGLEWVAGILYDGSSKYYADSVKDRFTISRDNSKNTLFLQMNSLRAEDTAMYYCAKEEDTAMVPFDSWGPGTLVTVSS VL: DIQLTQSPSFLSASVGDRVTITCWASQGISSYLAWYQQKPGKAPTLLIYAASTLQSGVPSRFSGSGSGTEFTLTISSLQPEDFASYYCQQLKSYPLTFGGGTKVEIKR 0.000306 s⁻¹

Answer with the recorded koff of H4H12890P (antibody, human IgG4 S228P, kappa, V domains shown, anti-IL2Rγ monoclonal antibody expressed with human IgG4 Fc) VH: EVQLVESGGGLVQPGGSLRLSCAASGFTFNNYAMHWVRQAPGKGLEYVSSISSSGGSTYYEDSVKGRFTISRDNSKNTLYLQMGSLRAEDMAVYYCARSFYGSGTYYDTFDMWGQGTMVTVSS VL: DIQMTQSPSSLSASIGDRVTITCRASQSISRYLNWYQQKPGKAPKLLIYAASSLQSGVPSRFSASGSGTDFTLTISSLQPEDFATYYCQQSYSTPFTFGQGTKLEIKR only. 0.000313 s⁻¹

Identify koff associated with the binder H4H12884P (antibody, human IgG4 S228P, kappa, V domains shown, anti-IL2Rγ monoclonal antibody expressed with human IgG4 Fc) VH: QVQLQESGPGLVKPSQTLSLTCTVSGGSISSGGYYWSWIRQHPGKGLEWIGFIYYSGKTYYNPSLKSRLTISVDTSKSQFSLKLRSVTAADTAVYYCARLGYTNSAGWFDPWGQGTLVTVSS VL: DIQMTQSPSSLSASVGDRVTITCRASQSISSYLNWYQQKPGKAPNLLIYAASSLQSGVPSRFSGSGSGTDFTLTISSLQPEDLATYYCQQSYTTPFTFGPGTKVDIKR 0.00121 s⁻¹

Given the binder H4H13538P (antibody, human IgG4 S228P, kappa, V domains shown, anti-IL2Rγ monoclonal antibody expressed with human IgG4 Fc) VH: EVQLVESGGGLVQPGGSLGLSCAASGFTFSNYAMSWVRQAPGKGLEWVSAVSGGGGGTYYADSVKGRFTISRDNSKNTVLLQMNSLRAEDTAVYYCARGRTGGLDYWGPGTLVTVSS VL: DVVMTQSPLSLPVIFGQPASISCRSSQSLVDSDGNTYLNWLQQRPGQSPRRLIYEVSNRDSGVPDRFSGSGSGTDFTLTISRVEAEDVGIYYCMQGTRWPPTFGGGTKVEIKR , write its reported koff. 0.000304 s⁻¹

Provide koff value for the following binder: H4H12900P (antibody, human IgG4 S228P, kappa, V domains shown, anti-IL2Rγ monoclonal antibody expressed with human IgG4 Fc) VH: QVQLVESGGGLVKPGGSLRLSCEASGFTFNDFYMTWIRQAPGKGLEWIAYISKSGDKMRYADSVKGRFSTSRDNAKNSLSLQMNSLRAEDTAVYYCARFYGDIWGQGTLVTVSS VL: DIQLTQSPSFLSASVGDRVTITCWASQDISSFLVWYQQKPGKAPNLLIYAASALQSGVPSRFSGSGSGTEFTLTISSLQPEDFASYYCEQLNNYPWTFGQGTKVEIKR 0.000335 s⁻¹

Specify koff for H4H12863P (antibody, human IgG4 S228P, kappa, V domains shown, anti-IL2Rγ monoclonal antibody expressed with human IgG4 Fc) VH: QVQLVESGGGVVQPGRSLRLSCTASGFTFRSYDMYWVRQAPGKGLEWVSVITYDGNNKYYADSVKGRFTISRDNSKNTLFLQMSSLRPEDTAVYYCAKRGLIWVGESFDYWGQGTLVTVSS VL: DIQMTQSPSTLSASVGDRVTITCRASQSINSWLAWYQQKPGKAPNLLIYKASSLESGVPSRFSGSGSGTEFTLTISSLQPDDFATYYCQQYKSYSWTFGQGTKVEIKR and stop. 0.00036 s⁻¹

Report measured koff; entry is H4H12899P (antibody, human IgG4 S228P, kappa, V domains shown, anti-IL2Rγ monoclonal antibody expressed with human IgG4 Fc) VH: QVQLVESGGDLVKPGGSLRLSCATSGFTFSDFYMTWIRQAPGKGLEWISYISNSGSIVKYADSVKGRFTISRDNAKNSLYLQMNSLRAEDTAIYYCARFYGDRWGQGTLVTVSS VL: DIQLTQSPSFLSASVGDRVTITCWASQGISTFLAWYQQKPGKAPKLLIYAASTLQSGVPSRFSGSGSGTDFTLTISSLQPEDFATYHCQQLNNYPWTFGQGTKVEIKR 0.000407 s⁻¹

Specify reported koff for the binder shown: H4H12871P (antibody, human IgG4 S228P, kappa, V domains shown, anti-IL2Rγ monoclonal antibody expressed with human IgG4 Fc; also called REGN9434) VH: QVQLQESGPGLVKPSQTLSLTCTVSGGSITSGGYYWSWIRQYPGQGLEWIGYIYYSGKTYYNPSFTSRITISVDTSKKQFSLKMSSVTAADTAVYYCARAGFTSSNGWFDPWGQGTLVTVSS VL: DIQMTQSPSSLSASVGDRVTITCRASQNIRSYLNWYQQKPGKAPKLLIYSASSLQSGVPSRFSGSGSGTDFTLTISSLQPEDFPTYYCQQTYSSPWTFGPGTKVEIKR 0.000905 s⁻¹
